Reference source: paper PMC8388771

Below, each of the molecules is paired with its reported HC50 value.
- System: human erythrocytes
- ASSAY: Hemolysis assay, HC50 determination
- Format: cell-based
- MEASUREMENT PARAMETERS: Table 1; lysis of human erythrocytes

// known answers, use as guide
[[record]]
smiles_input = "CC(C)CCc1cnnn1-c1c(OCC(=O)N[C@H](CCCNC(=N)N)Cn2cc(Cc3ccccc3)nn2)ccc2ccccc12.Cl"
result = ">32 µg/mL"

[[record]]
smiles_input = "CC(C)CCc1cnnn1-c1c(OCC(=O)N[C@H](CCCNC(=N)N)Cn2cc(C3CCCCC3)nn2)ccc2ccccc12"
result = ">32 µg/mL"


For the next question, use this molecule.
Form entry - test system: human erythrocytes; read-out: HC50; molecule: CC(C)CCc1cnnn1-c1c(OCC(=O)N[C@H](CCCCN)C(=O)N[C@H](CCCNC(=N)N)Cn2cc(Cc3ccccc3)nn2)ccc2ccccc12.Cl.Cl
>32 µg/mL

* * *

MIC tested on Cryptococcus neoformans var. grubii ATCC 208821: recorded values

Observe how each entry below is paired with its result.
[[record]]
molecule = "CC(C)CCc1cnnn1-c1c(OCC(=O)N[C@H](CCCNC(=N)N)Cn2cc(C3CCCCC3)nn2)ccc2ccccc12 [Compound 24]"
assayed_system = "Cryptococcus neoformans var. grubii ATCC 208821"
result = "> 32 µg/mL"

[[record]]
molecule = "CC(C)CCOc1ccccc1-n1nncc1COCC(=O)N[C@H](CCCCN)C(=O)N[C@H](CCCNC(=N)N)Cn1cc(Cc2ccccc2)nn1 [Compound 50]"
assayed_system = "Cryptococcus neoformans var. grubii ATCC 208821"
result = "> 32 µg/mL"


Query (molecule): CC(C)CCc1cn(-c2c(OCC(=O)N[C@H](CCCCN)C(=O)N[C@H](CCCNC(=N)N)Cn3cc(CC4CCCCC4)nn3)ccc3ccccc23)nn1 [Compound 41] ; field requested: MIC
4 to 8 µg/mL

Requested read-out: MIC. Entry: CC(C)CCc1cnnn1-c1c(OCC(=O)N[C@H](CCCCN)C(=O)N[C@H](CCCNC(=N)N)Cn2cc(C3CCCCC3)nn2)ccc2ccccc12.Cl.Cl [Compound 43]
4 to 8 µg/mL

What MIC value was documented for this molecule, CC(C)CCc1cn(-c2ccccc2OCC(=O)N[C@H](CCCNC(=N)N)Cn2cc(C3CCCC3)nn2)nn1.Cl [Compound 11] ?
32 µg/mL

Requested read-out: MIC. Entry: CC(C)CCc1cn(-c2ccccc2OCC(=O)N[C@H](CCCCN)C(=O)N[C@H](CCCNC(=N)N)Cn2cc(Cc3ccccc3)nn2)nn1 [Compound 36]
32 µg/mL

* * *

- ASSAY: Cytotoxicity (CC50) assay by CO-ADD
- Assay type: cell-based, human
- MEASUREMENT PARAMETERS: human, HEK293 cells (ATCC CRL-1573); Table 1; cytotoxicity on HEK293 cells, tested at ≤32 µg/mL
RESULT TYPE: CC50

Previously resolved entries follow.
[[record]]
molecule = "CC(C)CCc1cn(-c2ccccc2OCC(=O)N[C@H](CCCNC(=N)N)Cn2cc(Cc3ccccc3)nn2)nn1.Cl [Compound 13]"
result = "> 32 µg/mL"

[[record]]
molecule = "CC(C)CCc1cnnn1-c1ccccc1OCC(=O)N[C@H](CCCCN)C(=O)N[C@H](CCCNC(=N)N)Cn1cc(C2CCCCC2)nn1 [Compound 37]"
result = "> 32 µg/mL"


Next molecule, CC50 to be filled in.
Consider the molecule shown here: CC(C)CCc1cnnn1-c1ccccc1OCC(=O)N[C@H](CCCNC(=N)N)Cn1cc(C2CCCCC2)nn1 [Compound 14] What is its recorded CC50?
> 32 µg/mL
